All values here come from patent US20250340654A1.

Target: T1, Canine IL-31RA ECD-10His (canine, biotin-labeled in the Octet assay (site not stated))
T1 construct: The ELISA and Octet protocols say only 'IL-31RA' or 'canine IL-31RA'; also called cIL-31RA; canine IL-31 receptor alpha extracellular domain, HIS-tagged
T1 chain: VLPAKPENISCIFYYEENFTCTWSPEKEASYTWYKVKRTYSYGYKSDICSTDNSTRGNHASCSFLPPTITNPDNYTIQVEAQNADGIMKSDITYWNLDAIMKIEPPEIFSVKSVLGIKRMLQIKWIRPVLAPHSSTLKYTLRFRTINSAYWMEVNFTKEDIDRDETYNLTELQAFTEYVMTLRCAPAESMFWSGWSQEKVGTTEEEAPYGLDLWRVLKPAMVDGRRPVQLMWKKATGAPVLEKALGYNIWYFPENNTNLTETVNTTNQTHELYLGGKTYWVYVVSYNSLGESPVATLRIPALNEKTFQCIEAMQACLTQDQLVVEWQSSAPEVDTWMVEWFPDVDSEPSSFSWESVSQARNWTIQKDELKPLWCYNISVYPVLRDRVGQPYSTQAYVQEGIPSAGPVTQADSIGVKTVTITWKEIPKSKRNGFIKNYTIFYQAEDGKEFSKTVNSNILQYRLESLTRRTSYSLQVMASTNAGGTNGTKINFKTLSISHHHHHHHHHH
Assay: BLI (Octet), biotin-labeled canine IL-31RA on SA biosensors
quantity-kind: kon (M⁻¹ s⁻¹)

INSERT INTO assay_data (binder, quantitative_readout) VALUES
  ('Chimeric 218D9 (antibody, V domains shown, canine constant regions not specified; also called mouse-canine chimeric 218D9 antibody) VH: QVTLKESGPGILQPSQTLSLTCSFSGFSLSTFGRGVGWIRQPSGKGLDWLTHIWWDDDKYYNPALKSRLTISKDTSKNQVFLKIANVDTADTATYYCARIAGGLRRAPYAMDSWGQGTSVTVSS VL: DIQMTQSPASLSVSVGETVTITCRASENIYSSLAWYQQKQGKSPQLLVYAATNLADGVPSRFSGSGSGTQYSLKINSLQSEDSGNYYCQHFRDTPPTFGGGTKLEIK', 664000),
  ('c218D9VH4VL3 (antibody, V domains shown, Caninized antibody; chains tied by name to c218D9VH4-cIgGBm and c218D9VL3-cCK; also called c218D9VH4L3) VH: EVTLQESGPGLVKPSQTLSLTCSFSGFSLSTFGRGVGWIRQRPGRGLEWMGHIWWDDDKYYNPALKSRLSITKDTAKNQVFLQLSSMTTEDTAVYYCARIAGGLRRAPYAMDSWGQGTLVTVSS VL: DIVMTQTPLSLSVSPGETASISCRASENIYSSLAWFRQKPGQSPQLLVYAATNLADGVPDRFSGSGSGTDYTLRISRVEADDTGVYYCQHFRDTPPTFGQGTKLEIKR', 601000);
